test: chemical genetic growth profiling, strain panel (AID 1159580);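 further: tested at 20 µM; growth read once vehicle control cultures reached saturation at 30 °C; 1 = growth at the plate median or of vehicle wells; lower values mean less growth of the strain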; settings: S. cerevisiae deletion strains, growth OD, locus YJL134W, strain LCB3, active compounds read low
In all, about 5,500 compounds went through this assay and about 2,000 (36%) were called active. About 18% were inconclusive and are not listed. This is one part of the list.
Entries and their normalized growth
Reply: number alone, nothing else.

Use the examples below as a reference point.
| molecule | quantity.measured | val |
| --- | --- | --- |
| CN(C(=O)CN(CCO)CC(=O)N(C)C(C)(C)Cc1ccccc1)C(C)(C)Cc1ccccc1 | normalized growth | 0.986 |
| C[C@H](N)[C@H](O)c1cccc(O)c1 | normalized growth | 0.985 |
| NC(N)=NCCCC(NC(=O)C(N)Cc1ccc(O)cc1)C(=O)O (centres undefined) | normalized growth | 0.992 |
| CCC(=O)Nc1ccc(Cl)c(Cl)c1 | normalized growth | 0.986 |
| NC(N)=NCCC[C@@H](NC(=O)[C@@H](N)Cc1ccc(O)cc1)C(=O)O | normalized growth | 1.01 |

Dear colleague, I am looking for the recorded normalized growth of the following molecule: CN(C)C(=O)Nc1ccc(Cl)c(Cl)c1 0.996

For NNCCc1ccccc1 then? 0.993

Note, next up: C=C[C@H]1CN2CC[C@H]1C[C@@H]2[C@H](O)c1ccnc2ccccc12 0.992

Similarly, COc1ccc(C(=O)CC(=O)c2ccc(C(C)(C)C)cc2)cc1 ? 1
